// data source = ChEMBL document CHEMBL4433251

Test: Stability in mouse liver microsomes assessed as parent compound remaining at 30 mins
Assay type: ADME, Microsome
Details: read-out: Stability
assay-readout: remaining at 0.5 h (%)

(A) CCCCc1nc(C(C)C)c(Cc2nc(C(C)(C)C)no2)c(=O)n1Cc1ccc(-c2ccccc2-c2noc(=O)[nH]2)cc1
(B) CCCCc1nc(C)c(Cc2nc(C(C)(C)C)no2)c(=O)n1Cc1ccc(-c2ccccc2-c2noc(=O)[nH]2)cc1
**Q:** Among A and B , whose measured remaining at 0.5 h is the smaller figure? In your reply, give the label of the chosen option.
**A:** B

====

Target: Peroxisome proliferator-activated receptor gamma (Mus musculus) (UniProt P37238)
Sequence (P37238 whole entry, the tested form may be a part): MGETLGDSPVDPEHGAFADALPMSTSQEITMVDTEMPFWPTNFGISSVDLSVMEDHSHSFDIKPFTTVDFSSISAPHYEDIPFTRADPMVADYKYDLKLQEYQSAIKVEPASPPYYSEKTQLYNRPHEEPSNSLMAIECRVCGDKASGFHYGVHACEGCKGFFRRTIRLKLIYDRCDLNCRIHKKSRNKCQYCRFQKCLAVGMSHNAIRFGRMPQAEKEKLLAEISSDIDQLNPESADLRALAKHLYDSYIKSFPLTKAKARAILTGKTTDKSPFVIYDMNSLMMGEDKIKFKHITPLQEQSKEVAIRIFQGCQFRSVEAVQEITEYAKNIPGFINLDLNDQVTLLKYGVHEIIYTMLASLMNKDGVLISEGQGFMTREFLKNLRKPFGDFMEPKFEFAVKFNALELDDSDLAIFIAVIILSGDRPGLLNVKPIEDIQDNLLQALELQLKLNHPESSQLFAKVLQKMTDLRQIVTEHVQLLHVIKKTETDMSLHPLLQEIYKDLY
Experiment: Agonist activity at GAL4-tagged mouse PPARgamma LBD expressed in monkey CV1 cells assessed as receptor transactivation incubated for 24 hrs by luciferase reporter gene assay relative to telmisartan
Assay type: cell-based
assay-readout: %max (%)

Reference set, count: 5
CCCCc1nc(C)c(Cc2noc(C(C)C)n2)c(=O)n1Cc1ccc(-c2ccccc2-c2noc(=O)[nH]2)cc1 : 233
CCCCc1nc(C)c(Cc2nnc(-c3ccc(F)cc3)[nH]2)c(=O)n1Cc1ccc(-c2ccccc2-c2noc(=O)[nH]2)cc1 : 71
CCCCc1nc(C(C)C)c(Cc2nc(C)no2)c(=O)n1Cc1ccc(-c2ccccc2-c2noc(=O)[nH]2)cc1 : 207
CCCCc1nc(C)c(Cc2noc(-c3ccccc3F)n2)c(=O)n1Cc1ccc(-c2ccccc2-c2noc(=O)[nH]2)cc1 : 150
CCCCc1nc(C)c(Cc2nc(C)no2)c(=O)n1Cc1ccc(-c2ccccc2-c2noc(=O)[nH]2)cc1 : 136

(A) CCCCc1nc(C)c(Cc2noc(C(C)(C)C)n2)c(=O)n1Cc1ccc(-c2ccccc2-c2noc(=O)[nH]2)cc1
(B) CCCCc1nc(C(C)C)c(Cc2nnc(-c3ccc(OC)cc3)o2)c(=O)n1Cc1ccc(-c2ccccc2-c2noc(=O)[nH]2)cc1
**Q:** Just tell me: smaller %max value, A or B ? Your answer should be the label attached to the chosen record.
**A:** B

====

Assay: Half life in rat at 10 mg/kg, po
Format: ADME, organism-based
Conditions: in vivo
assay-readout: half-life (h)
Quick reminder: number only, in h, skip the unit.

For reference, reported half-life for CCCCc1nc(C)c(Cc2nc(C(C)(C)C)no2)c(=O)n1Cc1ccc(-c2ccccc2-c2noc(=O)[nH]2)cc1 stands at 1.78

====

Target: CYP2C19 (Homo sapiens, UniProt P33261)
Sequence (P33261 whole entry): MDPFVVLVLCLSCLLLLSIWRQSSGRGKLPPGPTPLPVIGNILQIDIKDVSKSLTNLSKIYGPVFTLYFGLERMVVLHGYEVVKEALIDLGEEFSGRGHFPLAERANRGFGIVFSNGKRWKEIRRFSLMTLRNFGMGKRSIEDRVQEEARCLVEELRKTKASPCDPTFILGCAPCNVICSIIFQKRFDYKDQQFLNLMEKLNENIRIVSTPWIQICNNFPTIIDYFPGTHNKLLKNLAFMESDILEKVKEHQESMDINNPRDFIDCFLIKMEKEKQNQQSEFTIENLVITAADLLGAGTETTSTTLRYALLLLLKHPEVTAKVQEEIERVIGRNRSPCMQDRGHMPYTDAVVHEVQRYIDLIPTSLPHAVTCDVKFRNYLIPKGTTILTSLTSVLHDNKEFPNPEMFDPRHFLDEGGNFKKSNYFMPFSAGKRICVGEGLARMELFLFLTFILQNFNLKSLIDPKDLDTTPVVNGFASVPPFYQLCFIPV
Experiment: Inhibition of CYP2C19 (unknown origin) assessed as percentage remaining activity at 10 uM
Format: ADME
Conditions: read-out: INH
assay-readout: activity at 10 µM (%)

CCCCc1nc(C(C)C)c(Cc2nc(C(C)(C)C)no2)c(=O)n1Cc1ccc(-c2ccccc2-c2noc(=O)[nH]2)cc1 : 78
CCCCc1nc(C)c(Cc2nc(C(C)(C)C)no2)c(=O)n1Cc1ccc(-c2ccccc2-c2noc(=O)[nH]2)cc1 : 84

====

Experiment: Cmax in rat at 10 mg/kg, po
Format: ADME, organism-based
Parameters: dose 10 mg/kg, route oral
Conditions: in vivo
assay-readout: Cmax (ng/mL)
Entry rule: numbers only, all in ng/mL.

The compound listed as CCCCc1nc(C)c(Cc2nc(C(C)(C)C)no2)c(=O)n1Cc1ccc(-c2ccccc2-c2noc(=O)[nH]2)cc1 has a reported Cmax of 1320
